pKi: −log10 of the molar value.
metric name: pKi

Reading of pKi for C1=C(CN2CCOCC2)COc2c1cccc2OC[C@H]1CNCCO1.CS(=O)(=O)O with Muscarinic acetylcholine receptor M3 (Rattus norvegicus, UniProt P08483): < 6.00

* * *

As a worked illustration, we turn to Ki data collected for 5-hydroxytryptamine receptor 1B (Rattus norvegicus).
Return type: number; implicit unit nM.

Briefly, Ki measured for N#CC1=Cc2cccc(OCC3CCCNC3)c2OC1 (racemic) : 1400

Briefly, Ki measured for N#CC1=Cc2cccc(OCC3CNCCO3)c2OC1 (racemic) : 250

Briefly, Ki measured for C1=C(CN2CCOCC2)COc2c1cccc2OCC1CNCCO1 (racemic) : 60

Where do these numbers come from? They come from ChEMBL document CHEMBL1131235.
